Hi there, I'd appreciate the recorded total protein half-life in vivo for every entry that follows.
# ASSAY NOTES: total protein half-life in vivo (active degradation + dilution); higher = more stable protein
# STATED CONDITIONS: wild type E. coli NCM3722; growth: P-lim chemostat; doubling time 12 h
One number for each entry, in h.

QUERY SEQUENCE	total protein half-life in vivo / h
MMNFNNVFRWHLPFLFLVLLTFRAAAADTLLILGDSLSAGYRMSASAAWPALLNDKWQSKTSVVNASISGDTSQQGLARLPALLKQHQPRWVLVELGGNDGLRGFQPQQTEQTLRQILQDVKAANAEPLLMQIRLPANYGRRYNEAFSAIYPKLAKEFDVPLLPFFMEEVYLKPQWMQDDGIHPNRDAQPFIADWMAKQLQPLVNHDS [P0ADA1]	11.4
MSTFKPLKTLTSRRQVLKAGLAALTLSGMSQAIAKDELLKTSNGHSKPKAKKSGGKRVVVLDPGHGGIDTGAIGRNGSKEKHVVLAIAKNVRSILRNHGIDARLTRSGDTFIPLYDRVEIAHKHGADLFMSIHADGFTNPKAAGASVFALSNRGASSAMAKYLSERENRADEVAGKKATDKDHLLQQVLFDLVQTDTIKNSLTLGSHILKKIKPVHKLHSRNTEQAAFVVLKSPSVPSVLVETSFITNPEEERLLGTAAFRQKIATAIAEGVISYFHWFDNQKAHSKKR	8.52

Lab note: next sequence to report on.
Recall and state the measured total protein half-life in vivo for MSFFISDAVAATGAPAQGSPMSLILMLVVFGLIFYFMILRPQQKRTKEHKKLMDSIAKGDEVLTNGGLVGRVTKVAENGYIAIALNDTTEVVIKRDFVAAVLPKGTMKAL [P0ADZ7] .
13
